Tested on: HeLa
Test: Cytotoxicity in human HeLa cells assessed as reduction in cell growth incubated for 72 hrs by neutral red staining based colorimetry
Type: functional
The following molecules are listed with their measured pIC50 values.
Scale note: pIC50 = -log10(concentration in M).

In the examples that follow, each entry is paired with its recorded pIC50.
1) CO[C@@H](C(=O)N[C@@H]1CC[C@@H](O)CNC1=O)[C@H](O)[C@@H](O)[C@H](O)/C=C/C(C)(C)C : 4.81
2) CO[C@@H](C(=O)N[C@@H]1CCCCNC1=O)[C@H](O)[C@@H](O)[C@H](O)/C=C/C(C)(C)C : 5.68
3) CO[C@@H](C(=O)N[C@H]1CCCCNC1=O)[C@H](O)[C@@H](O)[C@H](O)/C=C/C(C)(C)C : 4.22

Next:
Exercise: pIC50 lookup needed for "Cc1c2ccncc2c(C)c2c1[nH]c1ccccc12" , thanks.
Key: 5.80
